biological target: CD28 (human) (UniProt P10747); assay: flow cytometry, transfected cells
Measurement type: MFI ratio to WT (ΔWT) (fold)
Numbers only, in fold.

Sample answers from the record:
Binder	MFI ratio to WT (ΔWT) / fold
ICOSL-Fc N52L/N57H/Q100R (Fc fusion) DTQEKEVRAMVGSDVELSCACPEGSRFDLNDVYVYWQTSESKTVVTYHIPQLSSLEHVDSRYRNRALMSPAGMLRGDFSLRLFNVTPQDEQKFHCLVLSRSLGFQEVLSVEVTLHVAANFSVPVVSAPHSPSQDELTFTCTSINGYPRPNVYWINKTDNSLLDQALQNDTVFLNMRGLYDVVSVLRIARTPSVNIGCCIENVLLQQNLTVGSQTGNDIGERDKITENPVSTGEKNAAT	6.3
ICOSL-Fc N52R/N57W/Q100K (Fc fusion) DTQEKEVRAMVGSDVELSCACPEGSRFDLNDVYVYWQTSESKTVVTYHIPQRSSLEWVDSRYRNRALMSPAGMLRGDFSLRLFNVTPQDEQKFHCLVLSKSLGFQEVLSVEVTLHVAANFSVPVVSAPHSPSQDELTFTCTSINGYPRPNVYWINKTDNSLLDQALQNDTVFLNMRGLYDVVSVLRIARTPSVNIGCCIENVLLQQNLTVGSQTGNDIGERDKITENPVSTGEKNAAT	5.9

API: the following record is the query input.
Fill blank: measured MFI ratio to WT (ΔWT) of the binder ICOSL-Fc N52R/N57Y/Q100S (Fc fusion) DTQEKEVRAMVGSDVELSCACPEGSRFDLNDVYVYWQTSESKTVVTYHIPQRSSLEYVDSRYRNRALMSPAGMLRGDFSLRLFNVTPQDEQKFHCLVLSSSLGFQEVLSVEVTLHVAANFSVPVVSAPHSPSQDELTFTCTSINGYPRPNVYWINKTDNSLLDQALQNDTVFLNMRGLYDVVSVLRIARTPSVNIGCCIENVLLQQNLTVGSQTGNDIGERDKITENPVSTGEKNAAT is ____. 6

Cited source: patent US20250163127A1
